Data origin, for the record: the supplement of paper PMC12042874

- protocol: amyloid nucleation score (Sup35N fusion, yeast selection) (log enrichment); library NNK1; higher = more nucleation; inactive = no reads after selection;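 note: zero at mode of non-aggregating sequences after 7 days selection at 30°C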

>  <substance>
YWDKNFHYMCVARLFIVRLC

>  <amyloid nucleation score>
0.091

$$$$
>  <substance>
KHQGNMTTINNKRAARLLGP

>  <amyloid nucleation score>
inactive

$$$$
>  <substance>
YVYRFNFLNFVW

>  <amyloid nucleation score>
1.93

$$$$
>  <substance>
YYYGKVA

>  <amyloid nucleation score>
0.227

$$$$
>  <substance>
LSRILLRKNC

>  <amyloid nucleation score>
0.224

$$$$
>  <substance>
NSDGSLSKTRKRAGAQVSRQ

>  <amyloid nucleation score>
0.312

$$$$
>  <substance>
GLMDRRTFITICVYPFMESW

>  <amyloid nucleation score>
4.37

$$$$
>  <substance>
MSSVVLANFEGPAHELATGV

>  <amyloid nucleation score>
-0.072

$$$$
>  <substance>
LPNRCASIVRQIVQVWCVS

>  <amyloid nucleation score>
2.41

$$$$
>  <substance>
AHSCSLV

>  <amyloid nucleation score>
0.61

$$$$
>  <substance>
IIGQLRI

>  <amyloid nucleation score>
0.454

$$$$
>  <substance>
SCVLRRNSHRIMDSYPRYGQ

>  <amyloid nucleation score>
0.151

$$$$
>  <substance>
DKLLPHFK

>  <amyloid nucleation score>
inactive

$$$$
>  <substance>
FLKDIYVYVTLVCHLRSLAS

>  <amyloid nucleation score>
-0.589

$$$$
>  <substance>
DTNKNFSFSKAQ

>  <amyloid nucleation score>
-0.081

$$$$
>  <substance>
IYIGLLYVLCIGLASMCLTS

>  <amyloid nucleation score>
0.199

$$$$
>  <substance>
RHCLKVFSEDTYESVKVVLR

>  <amyloid nucleation score>
0.428

$$$$
>  <substance>
YELAMECYVSWVLLYVA

>  <amyloid nucleation score>
0.362

$$$$
